Hey, just so you know, these numbers are from the supplement of paper PMC9170038.

system: MS2 coat protein; test: apparent KD of MS2 coat protein; designed switch direction (-1 OFF switch, 1 ON switch): -1; higher = weaker reporter binding; conditions: input ligand: none
MEASUREMENT_LABEL: apparent KD of MS2 coat protein

SEQUENCE_TEXT	MEASUREMENT_LABEL	RESULT
AGUGUGUGGCAGGAUAUUCCGGUCGUUGGUCGGGAAGAAGGGUCUACAUGAGGAUCACCCAUGUGAGCGGUUGA [Ex6 #50] (Eterna round: R97, puzzle: Exclusion 6)	apparent KD of MS2 coat protein	379 nM
UCUGGUCAAGGAUAUACAAUCGUGCUUCGGCACGUAAGAUCACAUGAGGAUCACCCAUGUAGAAGGUGACCAGA [E2/1-C3] (Eterna round: R97, puzzle: Exclusion 2)	apparent KD of MS2 coat protein	43.9 nM
ACGCAUUGCCUUUGGUAGUGCGUAACAUGAGGAUCACCCAUGUAGGAUAUGGUAGGCUUUGCUUACCAGAAGGACAUUAUAAUC [Mat - Exclusion NG 3 - Mod of JL - D8] (Eterna round: R96, puzzle: Exclusion NG 3)	apparent KD of MS2 coat protein	25.1 nM
ACAUGACUGCUAGGAUAUAGAUGACAUGAGGAUCACCCAUGUUGUCCCAUGUUUAUGGAAACGGACUAGAAGGAGUAGUAUAUG [Ex NG2 #14] (Eterna round: R96, puzzle: Exclusion NG 2)	apparent KD of MS2 coat protein	27.9 nM
CUCGUGUAAGGAUAUACGAGUCACGGAAAUAAAACGUGAAGGUAGAAGGUACAUGAGGAUCACCCAUGUAAAAC [Mod of Anonveat 2 - Jieux - Exclusion 4] (Eterna round: R97, puzzle: Exclusion 4)	apparent KD of MS2 coat protein	29.8 nM
ACUUAUAGAGGAUAUACAGAUUAUUACAUGAGGAUCACCCAUGUUCUUCAAUGUAUAUAUGUAGAAGGCUAAGGAU [Mat - Exclusion 5 - JL Mod - D8] (Eterna round: R97, puzzle: Exclusion 5)	apparent KD of MS2 coat protein	75.9 nM
GUACAACAUGAGGAUCACCCAUGUGAGGAUAUGCGAAUUUCAUCAAAAGAUGAAAUUUGCAGAAGGCACUGUAC [Omei Ex1 A10] (Eterna round: R97, puzzle: Exclusion 1)	apparent KD of MS2 coat protein	20.8 nM
AAGUGGAAAACACAAUUGUACAUGAGGAUCACCCAUGUAUGUACGAAAUAUAGACAAGCUGUAUGCUCGACAACACA [Sensor v2 M17] (Eterna round: R96, puzzle: Sensor v2, turn-off variant)	apparent KD of MS2 coat protein	37 nM
GGUGAAGCAGGAUAUGUGCUGGCAUACAUGAGGAUCACCCAUGUCAUGUAGGAACCACGUAUAGAAGGGCUUCACC [Exclusion 5 (FMN-MS2 slide v.10)] (Eterna round: R97, puzzle: Exclusion 5)	apparent KD of MS2 coat protein	28.1 nM
UUAAAUCAUGUAGGAUAUGCGUGGCGAAGCUAUGCAGAAGGACAUGAGGAUCACCCAUGUGCUGCGGUCUGCGUACAGAUCGCA [JL ENG1 1.06] (Eterna round: R96, puzzle: Exclusion NG 1)	apparent KD of MS2 coat protein	307 nM
CCGCAACAUGAGGAUCACCCAUGUCAGGAUAUCGUACGUUCGUCGAAAGACGAUCGUACGAGAAGGGUGUGCGG [Eli x1 4.36] (Eterna round: R97, puzzle: Exclusion 1)	apparent KD of MS2 coat protein	110 nM
GCCUCACUUGAGGAUCACCCAAGUCAGGAUAUCUACAAGCCGACCAUACCGGCUUGCAAGAGAAGGGACUCUAA [Esonreti] (Eterna round: R97, puzzle: Exclusion 1)	apparent KD of MS2 coat protein	31.8 nM
UUAAUUAAUGUGAGGAUAUCUAGAGCCUCGGCUCUAGAGAAGGCACAUGAGGAUCACCCAUGUCUCAAUUAAUU [BmEx4/2-E2] (Eterna round: R97, puzzle: Brourd's mod of Exclusion 4)	apparent KD of MS2 coat protein	23.6 nM
GGUCAGACGGUAGGAUAUCCAUAUCGAGUGACCCUUUUAUAACAUGAGGAUCACCCAUGUCGGUGGGAGAAGGGCCGUACGGCG [salish99_ExNG02_R04_003] (Eterna round: R96, puzzle: Exclusion NG 2)	apparent KD of MS2 coat protein	401 nM
AAGUAGUGUGUGAGGAUAUUGGUGGAAUGACACAUUAAGAAGGCACAUGAGGAUCACCCAUGUGGGUUGACACG [Brourd's EX4 #20] (Eterna round: R97, puzzle: Brourd's mod of Exclusion 4)	apparent KD of MS2 coat protein	47 nM
AUAAUUAAUCGAGGAUAUCAGCACGUUUAGUGCUGAGAAGGCGACAUGAGGAUCACCCAUGUGAUCAAUUAAUAUUAAUAUUAU [ENG1/11-C2] (Eterna round: R96, puzzle: Exclusion NG 1)	apparent KD of MS2 coat protein	369 nM
AAGAAACAUGAGGAUCACCCAUGUGAGGAUAUGAAAAAGAAAAGAAAAGAAAGAAGAAUCAGAAGGCACAAAGC [salish99-ex1_r3_090] (Eterna round: R96, puzzle: Exclusion 1)	apparent KD of MS2 coat protein	31.2 nM
CUAAAAGUGAUCACAGGAACAUGAGGAUCACCCAUGUGCCUCAAGGAUAUGCACGGCUAUCCAGGGUAGAAGGUGAGAAUGCAC [Eternabot solution 30] (Eterna round: R96, puzzle: Exclusion NG 3)	apparent KD of MS2 coat protein	100 nM
